// values below are reported logD
Assay: Octanol-phosphate buffer partition coefficient, log D of the compound at pH 7.4
Assay type: physicochemical

[
  {
    "compound": "CC[C@H]1C[C@H](n2c(=O)nc(-c3ccc(NC)nc3)c3oc4ncc(-c5cnn(C)c5)cc4c32)CCO1 (racemic)",
    "logD": 2.6
  },
  {
    "compound": "CC[C@H]1C[C@@H](n2c(=O)nc(-c3ccc(NC)nc3)c3oc4ncc(-c5cnn(C)c5)cc4c32)CCO1 (racemic)",
    "logD": 2.9
  },
  {
    "compound": "Cn1cc(-c2cnc3oc4c(-c5cccnc5)nc(=O)n(CCC5CCCO5)c4c3c2)cn1 (stereo not drawn)",
    "logD": 1.7
  },
  {
    "compound": "CNc1ccc(-c2nc(=O)n(CCC3CCCO3)c3c2oc2ncc(-c4cnn(C)c4)cc23)nc1 (stereo not drawn)",
    "logD": 1.9
  },
  {
    "compound": "CC[C@H]1C[C@@H](n2c(=O)nc(-c3cnn(C)c3)c3oc4ccc(-c5cnn(C)c5)nc4c32)CCO1 (relative stereo)",
    "logD": 3
  },
  {
    "compound": "CNc1ccc(-c2nc(=O)n(CCC3CCOCC3)c3c2oc2ncc(-c4cnn(C)c4)cc23)cn1",
    "logD": 2.5
  },
  {
    "compound": "CC[C@H]1C[C@@H](n2c(=O)nc(-c3cnn(C)c3)c3oc4ncc(-c5cn(C)cn5)cc4c32)CCO1 (relative stereo)",
    "logD": 1.8
  },
  {
    "compound": "CNc1ccc(-c2nc(=O)n(CCC3CCCO3)c3c2oc2ncc(-c4cnn(C)c4)cc23)cn1 (racemic)",
    "logD": 2.7
  }
]

* * *

// values below are reported solubility at 24 h
Test: Aqueous solubility of the compound in phosphate buffer at pH 6.8 after 24 hrs
Format: physicochemical
propertyName: solubility at 24 h (µg/mL)

[
  {
    "molecule": "CC[C@H]1C[C@@H](n2c(=O)nc(-c3cnn(C)c3)c3oc4cc(C#N)c(-c5cnn(C)c5)nc4c32)CCO1 (relative stereo)",
    "resultUnit": "µg/mL",
    "boundOperator": "=",
    "experimentalResult": 2.1
  },
  {
    "molecule": "CC[C@H]1C[C@@H](n2c(=O)nc(-c3cnn(C)c3)c3oc4cnc(-c5cn(C)cn5)cc4c32)CCO1 (relative stereo)",
    "resultUnit": "µg/mL",
    "boundOperator": "=",
    "experimentalResult": 5.3
  },
  {
    "molecule": "CC[C@H]1C[C@@H](n2c(=O)nc(-c3cnn(C)c3)c3oc4cc(C#N)c(-c5cnn(C)c5)cc4c32)CCO1 (relative stereo)",
    "resultUnit": "µg/mL",
    "boundOperator": "=",
    "experimentalResult": 0.2
  },
  {
    "molecule": "CC[C@H]1C[C@@H](n2c(=O)nc(-c3cnn(C)c3)c3oc4ccc(-c5cncn5C)cc4c32)CCO1 (relative stereo)",
    "resultUnit": "µg/mL",
    "boundOperator": "=",
    "experimentalResult": 106
  },
  {
    "molecule": "CC[C@H]1C[C@@H](n2c(=O)nc(-c3cnn(C)c3)c3oc4ccc(-c5cn(C)cn5)nc4c32)CCO1 (relative stereo)",
    "resultUnit": "µg/mL",
    "boundOperator": "=",
    "experimentalResult": 0.6
  },
  {
    "molecule": "CC[C@H]1C[C@@H](n2c(=O)nc(-c3cnn(C)c3)c3oc4cnc(-c5cnn(C)c5)cc4c32)CCO1 (relative stereo)",
    "resultUnit": "µg/mL",
    "boundOperator": "<",
    "experimentalResult": 0.1
  },
  {
    "molecule": "CC[C@H]1C[C@@H](n2c(=O)nc(-c3cnn(C)c3)c3oc4ccc(-c5cnn(C)c5)cc4c32)CCO1 (relative stereo)",
    "resultUnit": "µg/mL",
    "boundOperator": "<",
    "experimentalResult": 0.1
  }
]

* * *

Assay: Octanol-phosphate buffer partition coefficient, log D of the compound at pH 7.4
Format: physicochemical
// values below are reported logD
propertyName: logD

[
  {
    "compound": "CCC1(OC)CC(n2c(=O)nc(-c3ccc(NC)nc3)c3oc4ncc(-c5cnn(C)c5)cc4c32)C1 (centres undefined)",
    "experimentalResult": 2.9
  },
  {
    "compound": "Cn1cc(-c2cnc3oc4c(-c5ccncc5)nc(=O)n(CCC5CCCO5)c4c3c2)cn1 (centres undefined)",
    "experimentalResult": 1.8
  },
  {
    "compound": "CC[C@H]1C[C@@H](n2c(=O)nc(-c3cnn(C)c3)c3oc4cnc(-c5cn(C)cn5)cc4c32)CCO1 (relative stereo)",
    "experimentalResult": 2.6
  },
  {
    "compound": "COc1cc(-c2nc(=O)n(CCC3CCCO3)c3c2oc2ncc(-c4cnn(C)c4)cc23)ccn1 (centres undefined)",
    "experimentalResult": 2.8
  },
  {
    "compound": "Cn1cc(-c2cnc3oc4c(-c5cnn(C)c5)nc(=O)n(CCC5CCCO5)c4c3c2)cn1 (centres undefined)",
    "experimentalResult": 1.5
  },
  {
    "compound": "COc1ccc(-c2nc(=O)n(CCC3CCCO3)c3c2oc2ncc(-c4cnn(C)c4)cc23)cn1 (centres undefined)",
    "experimentalResult": 2.8
  },
  {
    "compound": "CN(C)c1cnc(-c2nc(=O)n(CCC3CCCO3)c3c2oc2ncc(-c4cnn(C)c4)cc23)cn1 (centres undefined)",
    "experimentalResult": 2
  },
  {
    "compound": "Cn1cc(-c2cnc3oc4c(-c5cn(C)nn5)nc(=O)n(CCC5CCCO5)c4c3c2)cn1 (centres undefined)",
    "experimentalResult": 1.5
  },
  {
    "compound": "CNc1ccc(-c2nc(=O)n(C(C)CC3CCCO3)c3c2oc2ncc(-c4cnn(C)c4)cc23)cn1 (centres undefined)",
    "experimentalResult": 3.3
  }
]

* * *

Assay: Cmax in rat at 5 mg/kg, po
Type: ADME, organism-based
Design: dose 5 mg/kg, route oral
Details: in vivo
propertyName: Cmax (nM)

[
  {
    "compound": "CC[C@H]1C[C@@H](n2c(=O)nc(-c3cnn(C)c3)c3oc4cnc(-c5cnn(C)c5)cc4c32)CCO1 (relative stereo)",
    "resultUnit": "nM",
    "experimentalResult": 1600
  },
  {
    "compound": "CC[C@H]1C[C@@H](n2c(=O)nc(-c3cnn(C)c3)c3oc4ccc(-c5cn(C)cn5)nc4c32)CCO1 (relative stereo)",
    "resultUnit": "nM",
    "experimentalResult": 3100
  },
  {
    "compound": "CC[C@H]1C[C@@H](n2c(=O)nc(-c3cnn(C)c3)c3oc4ccc(-c5cnn(C)c5)nc4c32)CCO1 (relative stereo)",
    "resultUnit": "nM",
    "experimentalResult": 460
  },
  {
    "compound": "CC[C@H]1C[C@@H](n2c(=O)nc(-c3ccc(NC)nc3)c3oc4ncc(-c5cnn(C)c5)cc4c32)CCO1 (racemic)",
    "resultUnit": "nM",
    "experimentalResult": 1100
  },
  {
    "compound": "CC[C@H]1C[C@@H](n2c(=O)nc(-c3cnn(C)c3)c3oc4ccc(-c5cn(C)cn5)cc4c32)CCO1 (relative stereo)",
    "resultUnit": "nM",
    "experimentalResult": 1200
  },
  {
    "compound": "CC[C@H]1C[C@@H](n2c(=O)nc(-c3cnn(C)c3)c3oc4cc(C#N)c(-c5cnn(C)c5)nc4c32)CCO1 (relative stereo)",
    "resultUnit": "nM",
    "experimentalResult": 8900
  },
  {
    "compound": "CNc1ccc(-c2nc(=O)n(CC[C@@H]3CCCO3)c3c2oc2ncc(-c4cnn(C)c4)cc23)cn1",
    "resultUnit": "nM",
    "experimentalResult": 140
  }
]

* * *

Experiment: Octanol-phosphate buffer partition coefficient, log D of the compound at pH 7.4
Assay type: physicochemical
logD under 3 gets criterion met, anything at or over 3 gets criterion not met.

[
  {
    "compound": "CNc1ccc(-c2nc(=O)n(CCC3CC(C)(C)CO3)c3c2oc2ncc(-c4cnn(C)c4)cc23)cn1 (configuration not stated)",
    "qualitativeLabel": "criterion not met"
  },
  {
    "compound": "CC[C@H]1C[C@@H](n2c(=O)nc(-c3cnn(C)c3)c3oc4cnc(-c5cnn(C)c5)cc4c32)CCO1 (relative stereo)",
    "qualitativeLabel": "criterion met"
  },
  {
    "compound": "CC[C@H]1C[C@@H](n2c(=O)nc(-c3cnn(C)c3)c3oc4cc(C#N)c(-c5cnn(C)c5)nc4c32)CCO1 (relative stereo)",
    "qualitativeLabel": "criterion met"
  },
  {
    "compound": "CC[C@H]1C[C@@H](n2c(=O)nc(-c3cnn(C)c3)c3oc4ccc(-c5cn(C)cn5)cc4c32)CCO1 (relative stereo)",
    "qualitativeLabel": "criterion met"
  },
  {
    "compound": "CNc1ccc(-c2nc(=O)n(CCC3CCC(C)O3)c3c2oc2ncc(-c4cnn(C)c4)cc23)cn1 (configuration not stated)",
    "qualitativeLabel": "criterion not met"
  },
  {
    "compound": "COc1cncc(-c2nc(=O)n(CCC3CCCO3)c3c2oc2ncc(-c4cnn(C)c4)cc23)c1 (configuration not stated)",
    "qualitativeLabel": "criterion met"
  }
]

// provenance: ChEMBL document CHEMBL2396591
